# system_name: p70S6K human enzyme (Homo sapiens, UniProt P23443, T412E)
# Construct: purchased Upstate Chemicon 14-486
# Sequence (P23443 1-421 T412E limits assumed): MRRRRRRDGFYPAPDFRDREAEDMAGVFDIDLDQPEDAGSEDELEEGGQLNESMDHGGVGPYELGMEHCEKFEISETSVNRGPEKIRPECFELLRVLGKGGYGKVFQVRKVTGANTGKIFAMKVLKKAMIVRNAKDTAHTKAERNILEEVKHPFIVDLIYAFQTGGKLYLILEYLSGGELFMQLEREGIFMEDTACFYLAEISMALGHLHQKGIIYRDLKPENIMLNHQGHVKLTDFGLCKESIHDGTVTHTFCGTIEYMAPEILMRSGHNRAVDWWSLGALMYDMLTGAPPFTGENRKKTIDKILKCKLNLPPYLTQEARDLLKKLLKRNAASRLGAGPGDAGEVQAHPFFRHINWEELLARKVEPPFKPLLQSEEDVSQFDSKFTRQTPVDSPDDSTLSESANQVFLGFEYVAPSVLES
# protocol: p70S6K inhibition assay (IMAP FP);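 further: kinase reaction run at room temperature, phosphorylated substrate captured on IMAP beads and read as fluorescence polarization in mP, IC50 then converted to Ki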
# Format: biochemical
# reported_conditions: 30 μM ATP; Ki=IC50/(1+([ATP Challenge]/EC50 ATP)); read-out: p70S6K Ki, Avg
assay_endpoint: Ki (nM)
Quick note: give the figure in nM, leave out the unit.

Sample records with Ki:
| compound_structure | uom | test_value |
| --- | --- | --- |
| Cc1cccc(CN2CCC[C@H](Nc3ccc4[nH]ncc4c3)C2)c1 | nM | 3420 |
| c1ccc(CN2CCC[C@H](Nc3ccc4[nH]ncc4c3)C2)cc1 | nM | 1580 |
| Oc1cccc(CN2CCC[C@@H](Nc3ccc4[nH]ncc4c3)C2)c1 | nM | 2300 |
| CS(=O)(=O)Nc1cc(CN2CCC[C@H](Nc3ccc4[nH]ncc4c3)C2)ccc1Cl | nM | 2100 |
| NS(=O)(=O)c1cccc(CN2CCC[C@H](Nc3ccc4[nH]ncc4c3)C2)c1 | nM | 1290 |
| Cc1ccc(CN2CCC[C@H](Nc3ccc4[nH]ncc4c3)C2)cc1NS(C)(=O)=O | nM | 2000 |
| NC(=O)Cn1ccc2ccc(CN3CC[C@@H](Nc4cccc5cnccc45)C3)cc21 | nM | 213 |
| c1cc2cc(CN3CCC[C@@H](Nc4ccc5[nH]ncc5c4)C3)ccc2s1 | nM | 444 |
| CCCS(=O)(=O)Nc1cc(CN2CCC[C@H](Nc3ccc4[nH]ncc4c3)C2)ccc1C | nM | 2610 |
| C=Cc1ccc(CN2CCC[C@@H](Nc3ccc4[nH]ncc4c3)C2)cc1 | nM | 721 |

Entry "c1cc2cc(CN3CCC[C@H](Nc4ccc5[nH]ncc5c4)C3)ccc2s1" , tested on p70S6K human enzyme (Homo sapiens, UniProt P23443, T412E), has a reported Ki of 853

Entry "CCCCS(=O)(=O)Nc1cc(CN2CCC[C@H](Nc3ccc4[nH]ncc4c3)C2)ccc1C" , tested on p70S6K human enzyme (Homo sapiens, UniProt P23443, T412E), has a reported Ki of 2760

Provenance of the data: patent US20090325959A1
